Test system: Quadruplex DNA
Assay: Stabilization of G-quadruplex c-KIT1 5-FAM-GGGAGGGCGCTGGGAGGAGGG-TAMRA-3 (unknown origin) assessed as change in melting temperature at 1 uM incubated for 1 hr in dark condition by FRET-based melting assay
Format: nucleic-acid assay
ΔTm values for the compounds below.

Compound | Measurement target | Endpoint result
CN(C)CCCn1cc(-c2ccc3oc4ccccc4c3c2)nn1 | Quadruplex DNA | < 6 °C
Nc1ccc(-n2cc(-c3ccc4[nH]c5ccccc5c4c3)nn2)cc1 | Quadruplex DNA | < 5.5 °C
O=C(Nc1ccc(-n2cc(-c3ccc4[nH]c5ccccc5c4c3)nn2)cc1)C1CCCN1 (stereo not given) | Quadruplex DNA | < 5.5 °C
Nc1nc(CC(=O)Nc2nc(CC(=O)NCCCn3cc(-c4ccc5[nH]c6ccccc6c5c4)nn3)cs2)cs1 | Quadruplex DNA | < 5.5 °C

// ΔTm value for `NCCn1cc(-c2ccc3[nH]c4ccccc4c3c2)nn1` : < 5.5 °C

* * *

Molecular target: Quadruplex DNA
Assay: Binding affinity to G-quadruplex h-TELO 5-FAM-TTGGGTTAGGGTTAGGGTTAGGGA-TAMRA-3 (unknown origin) assessed as dissociation constant by measuring thermogram by isothermal titration calorimetry (ITC) assay
Format: nucleic-acid assay
Quantity: Kd (µM)
A number alone suffices; assume µM.

Lab note: `CN(C)CCCNC(=O)c1ccc(-n2cc(-c3ccc4[nH]c5ccccc5c4c3)nn2)cc1` gave Kd of 17.4

* * *

Target: Quadruplex DNA
Assay: Binding affinity to G-quadruplex c-KIT 2 5-FAM-GGGCGGGCGCGAGGGAGGGG-TAMRA-3 (unknown origin) assessed as dissociation constant by measuring thermogram by isothermal titration calorimetry (ITC) assay
Assay type: nucleic-acid assay
Quantity: pKd
# pKd is unitless: minus log10 of the molar concentration; print number only

Record `CN(C)CCCNC(=O)c1ccc(-n2cc(-c3ccc4[nH]c5ccccc5c4c3)nn2)cc1` . Reported pKd: 4.68

* * *

# ΔTm per entry
Tested on: Quadruplex DNA
Assay: Stabilization of calf thymus […] ds DNA 5-FAM-CAATCGGATCGAATTCGATCCGATTG-TAMRA-3 assessed as change in melting temperature at 1 uM incubated for 1 hr in dark condition by FRET-based melting assay
Format: nucleic-acid assay
Conditions: Bos taurus

Answered examples (4):
Molecule | ΔTm
NCCCCC(N)C(=O)Nc1ccc(-n2cc(-c3ccc4[nH]c5ccccc5c4c3)nn2)cc1 (stereo not given) | < 5.5 °C
CN(C)CCCn1cc(-c2ccc3[nH]c4ccccc4c3c2)nn1 | < 5.5 °C
Nc1ccc(-n2cc(-c3ccc4[nH]c5ccccc5c4c3)nn2)cc1 | < 5.5 °C
Nc1ccc(-n2cc(-c3ccc4oc5ccccc5c4c3)nn2)cc1 | < 6 °C

Here's the next entry for you.
Lab note: molecule `CN(C)CCCn1cc(-c2ccc3oc4ccccc4c3c2)nn1` tested on Quadruplex DNA; recorded ΔTm was < 6 °C

* * *

Tested on: Quadruplex DNA
Assay: Stabilization of G-quadruplex c-KIT2 5-FAM-GGGCGGGCGCGAGGGAGGGG-TAMRA-3 (unknown origin) assessed as change in melting temperature at 1 uM incubated for 1 hr in dark condition by FRET-based melting assay
Format: nucleic-acid assay
Overview of reported ΔTm across a group of compounds:

Some entries whose results are on file:
Compound | Endpoint result
Nc1nc(CC(=O)Nc2nc(CC(=O)NCCCn3cc(-c4ccc5oc6ccccc6c5c4)nn3)cs2)cs1 | < 6 °C
CN(C)CCCn1cc(-c2ccc3oc4ccccc4c3c2)nn1 | < 6 °C
NCCn1cc(-c2ccc3oc4ccccc4c3c2)nn1 | < 6 °C
Nc1nc(CC(=O)Nc2nc(CC(=O)NCCCn3cc(-c4ccc5[nH]c6ccccc6c5c4)nn3)cs2)cs1 | < 5.5 °C
O=C(Nc1ccc(-n2cc(-c3ccc4oc5ccccc5c4c3)nn2)cc1)C1CCCN1 (centres undefined) | < 6 °C
O=C(Nc1ccc(-n2cc(-c3ccc4[nH]c5ccccc5c4c3)nn2)cc1)C1CCCN1 (centres undefined) | < 5.5 °C

ΔTm reported for this compound `CN(C)CCCn1cc(-c2ccc3[nH]c4ccccc4c3c2)nn1` : < 5.5 °C

Lab book: ΔTm of NCCCCC(N)C(=O)Nc1ccc(-n2cc(-c3ccc4oc5ccccc5c4c3)nn2)cc1 (centres undefined) noted as < 6 °C

Input `CN(C)CCCNC(=O)c1ccc(-n2cc(-c3ccc4oc5ccccc5c4c3)nn2)cc1` . Output ΔTm: < 3 °C

Entry NCCCCC(N)C(=O)Nc1ccc(-n2cc(-c3ccc4[nH]c5ccccc5c4c3)nn2)cc1 (centres undefined) ; ΔTm = < 5.5 °C

Please fill in: ΔTm reported for `CN(C)CCCNC(=O)c1ccc(-n2cc(-c3ccc4[nH]c5ccccc5c4c3)nn2)cc1` = 9.9 °C

So for `Nc1ccc(-n2cc(-c3ccc4[nH]c5ccccc5c4c3)nn2)cc1` , the logged ΔTm turned out to be < 5.5 °C

`NCCn1cc(-c2ccc3[nH]c4ccccc4c3c2)nn1` yielded ΔTm of < 5.5 °C

Sure, the documented ΔTm for `Nc1ccc(-n2cc(-c3ccc4oc5ccccc5c4c3)nn2)cc1` is < 6 °C

* * *

Target: Quadruplex DNA
Test: Binding affinity to G-quadruplex c-MYC 5-FAM-TGGGGAGGGTGGGGAGGGTGGGGAAGG-TAMRA-3 (unknown origin) assessed as dissociation constant by fluorescence spectroscopy assay
Assay type: nucleic-acid assay
Quantity: pKd
Please express pKd as -log10 of the molar concentration.

What the record says about `CN(C)CCCNC(=O)c1ccc(-n2cc(-c3ccc4[nH]c5ccccc5c4c3)nn2)cc1` : pKd is 5.57

* * *

Test system: Calf thymus DNA
Test: Binding affinity to calf thymus ds DNA assessed as dissociation constant by fluorescence spectroscopy assay
Format: nucleic-acid assay, Bos taurus
Quantity: pKd
# log scale: pKd equals minus log10 of the concentration in mol/L

Given item `CN(C)CCCNC(=O)c1ccc(-n2cc(-c3ccc4[nH]c5ccccc5c4c3)nn2)cc1` , the value recorded as its pKd is 5.40

* * *

Target: Quadruplex DNA
Assay: Binding affinity to G-quadruplex VEGF 5-FAM-CGGGGCGGGCCGGGGGCGGGGT-TAMRA-3 (unknown origin) assessed as dissociation constant by fluorescence spectroscopy assay
Type: nucleic-acid assay
Quantity: pKd
In simple prose, pKd is minus the logarithm base ten of a concentration in moles per litre.

Sample `CN(C)CCCNC(=O)c1ccc(-n2cc(-c3ccc4[nH]c5ccccc5c4c3)nn2)cc1` ; pKd observed: 5.54

* * *

Test system: Quadruplex DNA
Experiment: Stabilization of G-quadruplex VEGF 5-FAM-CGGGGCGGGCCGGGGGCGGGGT-TAMRA-3 (unknown origin) assessed as change in melting temperature at 1 uM incubated for 1 hr in dark condition by FRET-based melting assay
Format: nucleic-acid assay
Quantity: ΔTm

Molecule | ΔTm
NCCn1cc(-c2ccc3[nH]c4ccccc4c3c2)nn1 | < 5.5 °C

Reported Quadruplex DNA ΔTm for item O=C(Nc1ccc(-n2cc(-c3ccc4[nH]c5ccccc5c4c3)nn2)cc1)C1CCCN1 (centres undefined) was < 5.5 °C

ΔTm on Quadruplex DNA for `CN(C)CCCNC(=O)c1ccc(-n2cc(-c3ccc4oc5ccccc5c4c3)nn2)cc1` is < 3 °C

# value of ΔTm, Quadruplex DNA, item `Nc1ccc(-n2cc(-c3ccc4[nH]c5ccccc5c4c3)nn2)cc1` = < 5.5 °C

* * *

Target: Quadruplex DNA
Experiment: Binding affinity to G-quadruplex c-KIT 2 5-FAM-GGGCGGGCGCGAGGGAGGGG-TAMRA-3 (unknown origin) assessed as dissociation constant by fluorescence spectroscopy assay
Type: nucleic-acid assay
Quantity: Kd (nM)
Provide the reading as a plain figure in nM.

Measured Kd, `CN(C)CCCNC(=O)c1ccc(-n2cc(-c3ccc4[nH]c5ccccc5c4c3)nn2)cc1` : 2800

* * *

Below, each entry is listed with its recorded ΔTm.
System: Quadruplex DNA
Test: Stabilization of calf thymus […] ds DNA 5-FAM-CAATCGGATCGAATTCGATCCGATTG-TAMRA-3 assessed as change in melting temperature at 1 uM incubated for 1 hr in dark condition by FRET-based melting assay
Assay type: nucleic-acid assay
Details: Bos taurus

Molecule | ΔTm
NCCn1cc(-c2ccc3oc4ccccc4c3c2)nn1 | < 6 °C

Value of measured ΔTm for the entry O=C(Nc1ccc(-n2cc(-c3ccc4oc5ccccc5c4c3)nn2)cc1)C1CCCN1 (centres undefined) : < 6 °C

Per the records, this molecule ( `CN(C)CCCNC(=O)c1ccc(-n2cc(-c3ccc4[nH]c5ccccc5c4c3)nn2)cc1` ) has ΔTm equal to 0.7 °C

So for `CN(C)CCCNC(=O)c1ccc(-n2cc(-c3ccc4oc5ccccc5c4c3)nn2)cc1` , the logged ΔTm turned out to be < 3 °C

* * *

System: Quadruplex DNA
Test: Stabilization of G-quadruplex c-MYC 5-FAM-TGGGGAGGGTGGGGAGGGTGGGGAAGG-TAMRA- 3 (unknown origin) assessed as change in melting temperature at 1 uM incubated for 1 hr in dark condition by FRET-based melting assay
Assay type: nucleic-acid assay
Quantity: ΔTm

// below: answered compounds
Query smiles | Endpoint result
CN(C)CCCNC(=O)c1ccc(-n2cc(-c3ccc4oc5ccccc5c4c3)nn2)cc1 | < 3 °C
Nc1ccc(-n2cc(-c3ccc4oc5ccccc5c4c3)nn2)cc1 | < 6 °C
Nc1nc(CC(=O)Nc2nc(CC(=O)NCCCn3cc(-c4ccc5[nH]c6ccccc6c5c4)nn3)cs2)cs1 | < 5.5 °C

Case `CN(C)CCCn1cc(-c2ccc3[nH]c4ccccc4c3c2)nn1` , Quadruplex DNA, ΔTm recorded as < 5.5 °C

Measured on Quadruplex DNA, `Nc1ccc(-n2cc(-c3ccc4[nH]c5ccccc5c4c3)nn2)cc1` has a documented ΔTm of < 5.5 °C

Value sought: ΔTm, system Quadruplex DNA, item `NCCn1cc(-c2ccc3[nH]c4ccccc4c3c2)nn1` . Result: < 5.5 °C
